Measured Population Apoptotic (%) of individual entries
Tested on: HEK-293T
Experiment: Multiplex assay against HEK293T
Assay type: toxicity, cell-based
Conditions: human, 24 h, 10 µM, compound concentration 10 uM, replicate 1
Please respond with the number in % and leave the unit unwritten.

compound	units.of.measure	Population Apoptotic (%)
Cl.NCCc1ccc(O)c(O)c1 [DOPAMINE HYDROCHLORIDE]	%	39

[Q] State the recorded Population Apoptotic (%) for this entry: `CCCOc1ccc2[nH]cc(C3=CCNCC3)c2n1.Cl`
[A] 39

[Q] I have this compound here, `C[C@H](N)COC(=O)[C@@H](CCCCN)NC(=O)Cc1c(-c2ccc3ccccc3c2)[nH]c2c1ccc1ccccc12` , and I need its recorded Population Apoptotic (%).
[A] 41

---

Listed below: Population Fragmented Nuclei (%) values for each entry.
Tested on: HEK-293T
Assay: Multiplex assay against HEK293T
Assay type: toxicity, cell-based
Conditions: human, 24 h, 1 µM, compound concentration 1 uM, replicate 2
Provide only the numeric value, understood in %.

Completed entries (count: 3):
compound	Population Fragmented Nuclei (%)
O=C(NCCN1CCC(n2c(=O)[nH]c3cc(Cl)ccc32)CC1)c1ccc(F)cc1 [HALOPEMIDE]	9
C[C@H](N)COC(=O)[C@@H](CCCCN)NC(=O)Cc1c(-c2ccc3ccccc3c2)[nH]c2c1ccc1ccccc12	7
CCCCC(=O)N(Cc1ccc(-c2ccccc2-c2nnn[nH]2)cc1)[C@H](C(=O)O)C(C)C	9

[Q] For the compound `CC[C@@H](C)Nc1nc(C)nc2c(-c3ccc(OC)nc3C)c(C)nn12` , what Population Fragmented Nuclei (%) is on record?
[A] 13

[Q] Please look up its Population Fragmented Nuclei (%): `O=C1[C@H](Cc2ccc(O)cc2)N2C(=O)CCN(C(=O)NCc3ccccc3)[C@H]2CN1Cc1cccc2ccccc12`
[A] 8

[Q] Return reported Population Fragmented Nuclei (%); argument: `CC(=O)Nc1cccc2c1c(Sc1ccc(Cl)cc1)c(C)n2CC(=O)O`
[A] 7

---

Test system: Fibroblast
Assay: Multiplex assay against human fibroblast
Assay type: toxicity, cell-based
Details: 12 h, 10 µM, compound concentration 10 uM, replicate 1
parameter: Population Normal (%)
Express it in %; write the number only.

Example entries and their recorded answers appear below.
compound	parameter	units.of.measure	quantitative.readout
Cc1c(CC(=O)O)c2cccnc2n1Cc1ccc(S(C)(=O)=O)cc1C(F)(F)F [FEVIPIPRANT]	Population Normal (%)	%	96
N#Cc1cc(F)cc(-c2nc(-c3ccc(F)cn3)no2)c1	Population Normal (%)	%	98
Cc1cnc(-c2cc(N3CCN(C(=O)CCS(C)(=O)=O)CC3)ncc2Cl)c(C)c1	Population Normal (%)	%	95
Cc1cccc(NC(=O)CN2CCC(c3ccccn3)CC2)c1.Cl.Cl	Population Normal (%)	%	89
CN(C)C(=O)Cn1cc(-c2ccc(-c3cncc4ccccc34)cc2)cn1	Population Normal (%)	%	95

[Q] Consider the compound shown here: `O=C1[C@H](Cc2ccc(O)cc2)N2C(=O)CCN(C(=O)NCc3ccccc3)[C@H]2CN1Cc1cccc2ccccc12` What is its recorded Population Normal (%)?
[A] 91

[Q] Record request: Population Normal (%) value, item Br.CS(=O)(=O)Nc1c(O)ccc2c1CCCC2C1=NCCN1 (stereo not drawn)
[A] 93

[Q] Entry under review: CC(C)COc1ccc(CNC(=O)N(Cc2ccc(F)cc2)C2CCN(C)CC2)cc1 [PIMAVANSERIN] . Reported Population Normal (%)?
[A] 98
